target.entity: gastrin receptor (Cavia porcellus, UniProt H0VZC5)
Construct: stomach was extracted from each animal immediately, from which gastric glands were prepared; from tissue; host or cells: gastric (fundic) glands of male Hartley guinea pigs
assay.comment: Gastrin receptor antagonism, displacement of 125I-labeled gastrin, gastric (fundic) gland cells
Type: binding, guinea pig (male Hartley)
measurement.parameters: guinea pig gastric glands, 125I-gastrin 0.2 nM, 30 min, 25 °C; read-out: Receptor Gastrin (IC50)
Experimental: Male Hartley guinea pig (450-600 g) or male ddY mouse (24-30 g) were used. (1) Gastrin Receptor Antagonism Preparation of gastric glands: Male Hartley guinea pigs (450-600 g) were killed by bleeding and stomach was extracted from each animal immediately, from which gastric glands were prepared. […] The mixture is incubated for 30 min at 25° C., centrifuged at 2000 rpm for 5 min and the supernatant is removed by aspiration. […] The radioactivity is counted on gamma counter. […]
measured.property: pIC50
// pIC50: -log10(molar conc.)

### Prompt // returns reported pIC50 for input O=C(Nc1cccc(-c2nnn[nH]2)c1)NC1C(=O)N(CC(=O)N2CCCC2)c2ccccc2N(CC(=O)N2CCCC2)C1=O
### Response 8.40

### Prompt Note, next up: Cc1cccc(NC(=O)NC2C(=O)N(CC(=O)OC(C)(C)C)c3ccccc3N(CC(=O)OC(C)(C)C)C2=O)c1
### Response 8.70

### Prompt Note, next up: CCOC(=O)c1cccc(NC(=O)NC2C(=O)N(CC(=O)C3CC3)c3ccccc3N(CC(=O)C3CC3)C2=O)c1
### Response 8.15

### Prompt Note, next up: Cc1cccc(NC(=O)NC2C(=O)N(CC(=O)N3CCCC3)c3ccccc3N(CC(=O)N3CCCC3)C2=O)c1
### Response 8.15

### Prompt Note, next up: O=C(Nc1cccc(-c2nnn[nH]2)c1)NC1C(=O)N(CC(=O)C2CC2)c2ccccc2N(CC(=O)C2CC2)C1=O
### Response 8.70

### Prompt Note, next up: O=C(Nc1cccc(OCc2nnn[nH]2)c1)NC1C(=O)N(CC(=O)C2CC2)c2ccccc2N(CC(=O)C2CC2)C1=O
### Response 7.96

### Prompt Note, next up: Cc1cccc(NC(=O)NC2C(=O)N(CC3CC3)c3ccccc3N(CC3CC3)C2=O)c1
### Response 7.92

* * *

target.entity: gastrin receptor (Cavia porcellus, UniProt H0VZC5)
Construct: stomach was extracted from each animal immediately, from which gastric glands were prepared; from tissue; host or cells: gastric (fundic) glands of male Hartley guinea pigs
Sequence (H0VZC5 1-426): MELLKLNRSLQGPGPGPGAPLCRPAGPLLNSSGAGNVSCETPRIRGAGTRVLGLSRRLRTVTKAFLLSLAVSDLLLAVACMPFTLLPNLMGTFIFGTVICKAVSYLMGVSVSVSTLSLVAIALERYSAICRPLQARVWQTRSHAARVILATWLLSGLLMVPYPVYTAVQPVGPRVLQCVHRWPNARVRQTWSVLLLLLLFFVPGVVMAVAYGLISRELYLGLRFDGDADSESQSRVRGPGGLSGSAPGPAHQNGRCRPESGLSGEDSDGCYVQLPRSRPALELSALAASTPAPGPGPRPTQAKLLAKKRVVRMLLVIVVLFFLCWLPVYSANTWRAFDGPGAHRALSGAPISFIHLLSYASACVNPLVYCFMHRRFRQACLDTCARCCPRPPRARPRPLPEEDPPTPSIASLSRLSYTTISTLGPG
assay.comment: Gastrin receptor antagonism, displacement of 125I-labeled gastrin, gastric (fundic) gland cells
Assay type: binding, guinea pig (male Hartley)
measurement.parameters: guinea pig gastric glands, 125I-gastrin 0.2 nM, 30 min, 25 °C; read-out: Receptor Gastrin (IC50)
Assign labels as follows, please: true for IC50 below 7 nM; false for IC50 equal to or exceeding 7 nM.

### Prompt hey, is IC50 for CCOC(=O)CSc1cccc(NC(=O)NC2C(=O)N(CC(=O)C3CC3)c3ccccc3N(CC(=O)C3CC3)C2=O)c1 [Compound 17-viii] lower than 7 nM or not?
### Response true

### Prompt Note, next up: COC(=O)CCCNC(=O)OCc1cccc(NC(=O)NC2C(=O)N(CC(=O)C3CC3)c3ccccc3N(CC(=O)C3CC3)C2=O)c1 [Compound 9h]
### Response true

### Prompt Note, next up: Cc1cccc(NC(=O)NC2C(=O)N(CC(=O)c3ccco3)c3ccccc3N(CC(=O)c3ccco3)C2=O)c1 [Compound 8f]
### Response true

### Prompt Note, next up: O=C(O)CCCNC(=O)OCc1cccc(NC(=O)NC2C(=O)N(CC3CC3)c3ccccc3N(CC3CC3)C2=O)c1 [Compound 11o]
### Response false

* * *

Assign log10 IC50 to each entry below.
target.entity: CCK-B receptor (Mus musculus)
Construct: crude membrane specimen from mouse cerebral cortex; from tissue; host or cells: cerebral cortex of male ddY mice, crude membranes
Sequence (P56481 whole entry): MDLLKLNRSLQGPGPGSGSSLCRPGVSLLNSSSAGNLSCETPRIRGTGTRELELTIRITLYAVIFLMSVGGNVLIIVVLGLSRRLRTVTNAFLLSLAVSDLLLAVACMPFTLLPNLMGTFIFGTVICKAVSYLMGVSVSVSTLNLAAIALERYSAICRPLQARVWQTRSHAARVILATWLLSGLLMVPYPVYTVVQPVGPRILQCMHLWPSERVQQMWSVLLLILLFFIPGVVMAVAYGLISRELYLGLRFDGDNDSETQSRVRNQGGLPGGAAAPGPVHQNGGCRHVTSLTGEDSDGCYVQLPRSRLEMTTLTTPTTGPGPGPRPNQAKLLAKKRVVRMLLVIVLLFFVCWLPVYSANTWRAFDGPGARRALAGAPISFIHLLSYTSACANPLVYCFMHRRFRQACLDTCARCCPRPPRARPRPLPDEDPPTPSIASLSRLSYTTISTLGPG
assay.comment: CCK-B receptor antagonism, displacement of [3H]CCK-8, cerebral cortex crude membrane
Type: binding, mouse (male ddY)
measurement.parameters: mouse cerebral cortex membrane, [3H]CCK-8 1 nM, 90 min, 25 °C; read-out: Receptor CCK-B (IC50)
log10 IC50, nM

### Prompt // returns reported log10 IC50 for input O=C(Nc1cccc(-c2nnn[nH]2)c1)NC1C(=O)N(CC2CC2)c2ccccc2N(CC2CC2)C1=O
### Response 1.41

### Prompt Note, next up: O=C(O)Cc1cccc(NC(=O)NC2C(=O)N(CC(=O)N3CCCC3)c3ccccc3N(CC(=O)N3CCCC3)C2=O)c1
### Response 1.46

### Prompt Note, next up: O=C(O)CCCNC(=O)OCc1cccc(NC(=O)NC2C(=O)N(CC(=O)c3ccco3)c3ccccc3N(CC(=O)c3ccco3)C2=O)c1 [Compound 11f]
### Response 1.58

### Prompt Note, next up: Cc1cccc(NC(=O)NC2C(=O)N(CC(=O)N3CCCC3)c3ccccc3N(CC(=O)N3CCCC3)C2=O)c1
### Response 1.73

### Prompt Note, next up: CC(C)S(=O)(=O)NC(=O)c1cccc(NC(=O)NC2C(=O)N(CC(=O)C3CC3)c3ccccc3N(CC(=O)C3CC3)C2=O)c1
### Response 2.28

### Prompt Note, next up: CCOC(=O)CSc1cccc(NC(=O)NC2C(=O)N(CC(=O)C3CC3)c3ccccc3N(CC(=O)C3CC3)C2=O)c1
### Response 0.78

* * *

Assign pIC50 to each entry below.
target.entity: gastrin receptor (Cavia porcellus)
Construct: stomach was extracted from each animal immediately, from which gastric glands were prepared; from tissue; host or cells: gastric (fundic) glands of male Hartley guinea pigs
Sequence (H0VZC5 1-426): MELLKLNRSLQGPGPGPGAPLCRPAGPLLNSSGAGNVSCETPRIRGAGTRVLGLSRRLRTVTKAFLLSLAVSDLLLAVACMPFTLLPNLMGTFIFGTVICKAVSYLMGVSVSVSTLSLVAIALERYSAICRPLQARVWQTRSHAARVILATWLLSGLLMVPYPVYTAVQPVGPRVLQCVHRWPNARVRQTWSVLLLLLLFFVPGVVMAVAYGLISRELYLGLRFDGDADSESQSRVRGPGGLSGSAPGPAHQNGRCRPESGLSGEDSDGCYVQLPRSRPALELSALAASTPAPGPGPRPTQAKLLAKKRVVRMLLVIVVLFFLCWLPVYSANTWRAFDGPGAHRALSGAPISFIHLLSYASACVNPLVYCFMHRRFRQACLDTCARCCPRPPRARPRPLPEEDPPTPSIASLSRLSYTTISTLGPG
assay.comment: Gastrin receptor antagonism, displacement of 125I-labeled gastrin, gastric (fundic) gland cells
Type: binding, guinea pig (male Hartley)
measurement.parameters: guinea pig gastric glands, 125I-gastrin 0.2 nM, 30 min, 25 °C; read-out: Receptor Gastrin (IC50)
// pIC50: -log10(molar conc.)

### Prompt // returns reported pIC50 for input COC(=O)CCCNC(=O)OCc1cccc(NC(=O)NC2C(=O)N(CC(=O)c3ccccc3C)c3ccccc3N(CC(=O)c3ccccc3C)C2=O)c1
### Response 8.22

### Prompt Note, next up: COC(=O)CCCNC(=O)OCc1cccc(NC(=O)NC2C(=O)N(CC3CC3)c3ccccc3N(CC3CC3)C2=O)c1
### Response 7.51

### Prompt Note, next up: CC(C)S(=O)(=O)NC(=O)c1cccc(NC(=O)NC2C(=O)N(CC(=O)C3CC3)c3ccccc3N(CC(=O)C3CC3)C2=O)c1
### Response 8.22

### Prompt Note, next up: CC(=O)NS(=O)(=O)c1cccc(NC(=O)NC2C(=O)N(CC(=O)C3CC3)c3ccccc3N(CC(=O)C3CC3)C2=O)c1
### Response 8.22

### Prompt Note, next up: COC(=O)CCCNC(=O)OCc1cccc(NC(=O)NC2C(=O)N(CC(=O)c3cccs3)c3ccccc3N(CC(=O)c3cccs3)C2=O)c1
### Response 8.52

### Prompt Note, next up: Cc1cccc(NC(=O)NC2C(=O)N(CC(=O)c3ccccc3C)c3ccccc3N(CC(=O)c3ccccc3C)C2=O)c1
### Response 8.40
